Assay: PK study in dogs (intravenous and oral)
Type: in vivo
Details: male, beagle, dog, plasma, oral 3 mg/kg
Measurement Kind: MRT (h)
The figure you give is taken to be in h; do not add the unit.

Note down MRT recorded for COc1cc2nccc(Oc3ccc(NC(=O)NC4CC4)c(Cl)c3)c2cc1C(N)=O 4.81

* * *

Test: PK study in mice (intravenous and oral)
Format: in vivo
Conditions: female, BALB/cAnNCrj-nu/nu, mouse, plasma, oral 3 mg/kg
Measurement Kind: Cmax (ng/mL)
The figure you give is taken to be in ng/mL; do not add the unit.

Note down Cmax recorded for COc1cc2nccc(Oc3ccc(NC(=O)NC4CC4)c(Cl)c3)c2cc1C(N)=O 1970

* * *

Test: PK study in monkeys (intravenous and oral)
Assay type: in vivo, cynomolgus monkeys
Details: male, cynomolgus, cynomolgus monkey, plasma, intravenous 3 mg/kg, read-out: CLtot (converted)
Measurement Kind: clearance (mL/min/kg)
The figure you give is taken to be in mL/min/kg; do not add the unit.

Note down clearance recorded for COc1cc2nccc(Oc3ccc(NC(=O)NC4CC4)c(Cl)c3)c2cc1C(N)=O 3.97

* * *

Tested on: plasma protein
Experiment: in vitro plasma protein binding, mice
Format: in vitro ADME
Conditions: mouse, plasma; mice, 0.3–30 μg/mL; read-out: average fp (unbound fraction in plasma)
Measurement Kind: fraction unbound
// return just the number, without any unit appended

Note down fraction unbound recorded for COc1cc2nccc(Oc3ccc(NC(=O)NC4CC4)c(Cl)c3)c2cc1C(N)=O 0.033

* * *

System: plasma protein
Experiment: in vitro plasma protein binding, dogs
Assay type: in vitro ADME
Settings: dog, plasma; dogs, 0.3–30 μg/mL; read-out: average fp (unbound fraction in plasma)
Measurement Kind: fraction unbound
// return just the number, without any unit appended

Note down fraction unbound recorded for COc1cc2nccc(Oc3ccc(NC(=O)NC4CC4)c(Cl)c3)c2cc1C(N)=O 0.089

* * *

Test: PK study in rats (intravenous and oral)
Format: in vivo
Details: male, Sprague-Dawley, rat, plasma, intravenous 3 mg/kg, read-out: Vdss
Measurement Kind: Vd

Note down Vd recorded for COc1cc2nccc(Oc3ccc(NC(=O)NC4CC4)c(Cl)c3)c2cc1C(N)=O [lenvatinib, Lenvatinib] 0.392 L/kg

* * *

Test: PK study in monkeys (intravenous and oral)
Assay type: in vivo, cynomolgus monkeys
Conditions: male, cynomolgus, cynomolgus monkey, plasma, intravenous 3 mg/kg, read-out: Vdss
Measurement Kind: Vd (L/kg)
The figure you give is taken to be in L/kg; do not add the unit.

Note down Vd recorded for COc1cc2nccc(Oc3ccc(NC(=O)NC4CC4)c(Cl)c3)c2cc1C(N)=O 0.794

* * *

Assay: Cross-species PK summary (mice, rats, dogs, monkeys)
Assay type: in vivo, and monkeys
Conditions: mouse, rat, dog, monkey, plasma, po; range over mice, rats, dogs, and monkeys; read-out: oral bioavailability
Measurement Kind: bioavailability

Note down bioavailability recorded for COc1cc2nccc(Oc3ccc(NC(=O)NC4CC4)c(Cl)c3)c2cc1C(N)=O 64 to 78%

* * *

Test: PK study in rats (intravenous and oral)
Type: in vivo
Conditions: male, Sprague-Dawley, rat, plasma, po, 30 mg/kg, oral 30 mg/kg
Description: Sprague–Dawley male rats were purchased from Charles River Japan, Inc., and were used for the PK study after 8 days of an acclimatization period. Rats were 8 weeks old when lenvatinib was dosed and the body weight range was 0.28–0.31 (kg). Rats were fasted a day before the PK study and feeding was resumed 4 h postdose. […]
Measurement Kind: half-life (h)
The figure you give is taken to be in h; do not add the unit.

Note down half-life recorded for COc1cc2nccc(Oc3ccc(NC(=O)NC4CC4)c(Cl)c3)c2cc1C(N)=O 4.95
